Test system: 186277-243-T-J2-PDC complex spheroid growth;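 note: luminescent signal used as a stand-in for viable cell amount; spheroids exposed to compounds for seven days before the viability read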
testName: Anticancer human tumor 186277-243-T-J2-PDC patient-derived colon adenocarcinoma cell line growth inhibition [AhR]; active = viability on the fitted dose curve at most 10% of control; inactive = the rest
studyConditions: second compound 0.316 µM; first compound 1 µM
Outcomes you can answer with include only these: active, inactive

Recorded results for 2 compounds are shown here.
COc1ccc([C@@H](O)c2cc(-c3ncnc4cc(N5CCOCC5)ccc34)c(F)cc2Cl)nn1 + Cc1ccccc1N=Nc1ccc(NC(=O)c2ccnn2C)c(C)c1
inactive
CC1COCCN1c1cc(-c2ccnn2C)c2ccnc(-c3ccn[nH]3)c2n1 (stereo not drawn) + Cc1cncc(-c2nc(NCCc3c[nH]c4ccccc34)c3ncn(C(C)C)c3n2)c1
active

Then there is this compound:
Look up the recorded call for NS(=O)(=O)OCC1CC(n2ccc3c(NC4CCc5ccccc54)ncnc32)CC1O (stereo not drawn) + CC(CO)NC(=O)c1cc(-c2ccc(Cl)cc2)nn(-c2cnn(C)c2)c1=O in this test.
active

Reference source for all entries: PubChem BioAssay AID1918991
